Experimental Target: Histamine H1 receptor (Homo sapiens, UniProt P35367)
Sequence (P35367 whole entry): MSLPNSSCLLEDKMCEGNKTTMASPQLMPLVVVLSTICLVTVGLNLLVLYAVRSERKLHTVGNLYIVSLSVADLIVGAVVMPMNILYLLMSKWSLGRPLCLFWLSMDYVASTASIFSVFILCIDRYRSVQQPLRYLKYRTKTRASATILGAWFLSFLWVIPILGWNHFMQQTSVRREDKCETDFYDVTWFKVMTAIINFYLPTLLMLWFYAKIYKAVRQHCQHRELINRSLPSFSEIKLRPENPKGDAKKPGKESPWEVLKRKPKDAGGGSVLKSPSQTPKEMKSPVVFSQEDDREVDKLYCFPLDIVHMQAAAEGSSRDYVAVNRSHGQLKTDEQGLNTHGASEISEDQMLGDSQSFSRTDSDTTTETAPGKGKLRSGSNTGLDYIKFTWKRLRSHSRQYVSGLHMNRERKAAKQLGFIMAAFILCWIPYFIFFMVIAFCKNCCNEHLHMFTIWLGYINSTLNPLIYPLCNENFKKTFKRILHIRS
Reported Property: pKi
Just the number, please; pKi means minus log10 of the concentration in mol/L.

Here C=C(C)[C@@H]1CCC(C)=C[C@H]1c1c(OC)cc(CCCCC)cc1OCCCCOc1cc(CCCCC)cc(OC)c1[C@@H]1C=C(C)CC[C@H]1C(=C)C was tested on Histamine H1 receptor (Homo sapiens, UniProt P35367), and its pKi came to 6.22

----------
The following compounds each carry a recorded pKi for 5-hydroxytryptamine receptor 2B (Homo sapiens, UniProt P41595).
Just the number, please; pKi means minus log10 of the concentration in mol/L.

> print(dat)
                                        smi  meas.value
1  C=C(C)[C@@H]1CCC(C)=C[C@H]1c1c(O)cc(CCCCC)cc1OCCCCCCCOc1cc(CCCCC)cc(O)c1[C@@H]1C=C(C)CC[C@H]1C(=C)C        5.74
2  C=C(C)[C@@H]1CCC(C)=C[C@H]1c1c(OC)cc(CCCCC)cc1OCCCCCCOc1cc(CCCCC)cc(OC)c1[C@@H]1C=C(C)CC[C@H]1C(=C)C        5.06
3  C=C(C)[C@H]1CCC(C)=C[C@@H]1c1c(O)cc(CCCCC)cc1OCCOc1cc(CCCCC)cc(O)c1[C@@H]1C=C(C)CC[C@H]1C(=C)C        5.77

Here C=C(C)[C@H]1CCC(C)=C[C@@H]1c1c(O)cc(CCCCC)cc1OCCCCCCCCOc1cc(CCCCC)cc(O)c1[C@@H]1C=C(C)CC[C@H]1C(=C)C was tested on 5-hydroxytryptamine receptor 2B (Homo sapiens, UniProt P41595), and its pKi came to 5.35

Here C=C(C)[C@H]1CCC(C)=C[C@@H]1c1c(OC)cc(CCCCC)cc1OCCCCCCCCCCCCOc1cc(CCCCC)cc(OC)c1[C@H]1C=C(C)CC[C@@H]1C(=C)C was tested on 5-hydroxytryptamine receptor 2B (Homo sapiens, UniProt P41595), and its pKi came to 5.18

Here C=C(C)[C@@H]1CCC(C)=C[C@H]1c1c(O)cc(CCCCC)c2c1OCC2 was tested on 5-hydroxytryptamine receptor 2B (Homo sapiens, UniProt P41595), and its pKi came to 5.48

Here Cn1ccc2cc3c(cc21)CCN3C(=O)Nc1cccnc1 was tested on 5-hydroxytryptamine receptor 2B (Homo sapiens, UniProt P41595), and its pKi came to 8.33

Here C=C(C)[C@H]1CCC(C)=C[C@@H]1c1c(O)cc(CCCCC)cc1OCCCCCOc1cc(CCCCC)cc(O)c1[C@@H]1C=C(C)CC[C@H]1C(=C)C was tested on 5-hydroxytryptamine receptor 2B (Homo sapiens, UniProt P41595), and its pKi came to 5.68

Here C=C(C)[C@@H]1CCC(C)=C[C@H]1c1c(O)cc(CCCCC)cc1OCCCCCCCCCCCCOc1cc(CCCCC)cc(O)c1[C@@H]1C=C(C)CC[C@H]1C(=C)C was tested on 5-hydroxytryptamine receptor 2B (Homo sapiens, UniProt P41595), and its pKi came to 5.62
